Would you mind telling me the reported protein stability index of each entry?
experiment: protein stability index of a GFP-peptide fusion (GPS, HEK-293T) (PSI 1-6); higher = more stable; settings: treatment: DMSO; c terminus: a fixed tail appended;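 also: 24-mer peptide tiles fused after GFP, lentivirally expressed, FACS-sorted into six equal bins by GFP/DsRed ratio, decoded by Illumina sequencing, PSI is the read-weighted mean bin number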
One number for each entry.

Solved entries (count: 3):
{"residue sequence": "KFGVVQTSVEECSQKGCLALSLLE [CLCN6]", "obs value": 2.81}
{"residue sequence": "CQALPYGPGYWMCCHRSQKGFPGC [FBXO34]", "obs value": 2.35}
{"residue sequence": "GEYVVTAKAEGFTASTKNCMVGYD [CPXM2]", "obs value": 4.26}

Batch request: protein stability index for each of the following sequences.
1. NVLSVNLPDNFTLKEDGMETVPWF [TPH1]
2. WQMIEQIQFIKLFGMAKIDNLLQE [HNF4A]
3. KNHSTVTVEEAKAEKETELSLQKE [TRIM29]
4. SALPTGSPKRGTAPGDLSATEPAT [FBF1]
5. AQLQDFVRAKGSQSGRHLQTHSNT [STX5]
6. TDRSHIYTFTDTFTEKLWPLFYPG [TRIM39]
7. MTLLPGDNSDYDYSALSCTSDASF [KCNG1]
8. RSLGPRAPSLRRHVLIHNTLQQLQ [SERTAD3]

RESULT:
2.75
2.9
5.57
5.32
4.13
2.16
3.79
2.64

----------
assay: protein stability index of a GFP-peptide fusion (GPS, HEK-293T) (PSI 1-6); higher = more stable; conditions: treatment: DMSO; c terminus: a fixed tail appended
assay metric: protein stability index
Numbers only.

In the examples that follow, each entry is paired with its recorded protein stability index.
{"residue sequence": "QWLRPHVSTKEQILDLLVLEQFLS [ZSCAN9]", "obs value": 2.07}
{"residue sequence": "KHHNLEGLRKRIATLFFHYIKTPL [IQUB]", "obs value": 3.05}
{"residue sequence": "LIIFDKQSSQRMRQNLKLLVEETS [CEP70]", "obs value": 2.1}
{"residue sequence": "SDVDQLYLIIRTLGKLIPRHQSIF [CDKL4]", "obs value": 3}
{"residue sequence": "MPEEVHHGEEEVETFAFQAEIAQL [HSP90AB1]", "obs value": 5.24}

Give me protein stability index for each of these sequences, listed below.
1. KTHSSPALSQGHVTGSKTTKDATG [PSD2]
2. METFDPTELPELLKLYYRRLFPYS [PRIM1]
3. NAVKYVSNIKFCSFHPLQYIGFYG [PDS5B]
4. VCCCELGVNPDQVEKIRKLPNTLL [ANKRD40]

RESULT:
5.37
2.43
2.89
2.26

Give protein stability index for each listed item.
1. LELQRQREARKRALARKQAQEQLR [RSPH3]
2. NLLLQPTTNPHTSASHRPCVNGDV [SMG5]
3. LGPVPREDQAEAWGCSCCPPETKH [TSPAN10]
4. LKKYLEPRCPRMVLSLKEGAREED [FBXO3]
5. LLVINESIESIKWMIEEKATITSR [LURAP1L]
6. NKQKCVERNEVRNVFKELQIMQGL [STK32A]
7. IELNPPEKMALDPYTELRKQPLRK [EFHC1]

RESULT:
1. 3.95
2. 3.48
3. 4.91
4. 4.56
5. 2.38
6. 2.94
7. 4.08

Go through the list and state protein stability index for each entry.
1. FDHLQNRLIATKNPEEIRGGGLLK [TENT5C]
2. KAVVFFVFYLWSAIEIFRYSFYML [HACD3]
3. KGGYKEFFPQHPNFCEPQDYRPMN [CDC25B]
4. FLPTALLCAYGFFASLRPSEPFLT [SLC19A2]
5. EEGSANRRPEDQELESLSAIEAEL [CHGA]

RESULT:
3.73
3.46
3.52
3.25
5.59

// batch mode: one protein stability index value per listed entry
1. HSGEKPYKCSDCGKTFKQSSNLGQ [ZNF232]
2. HECGTKYPVEWAKFCCECGIRRMI [ZC2HC1A]
3. KSVRLARELESREAELRRRDTFYK [CHCHD6]

RESULT:
3.76
2.48
4.23

// each sequence listed below needs its protein stability index
1. PQESAILQLFHQDGTFSPVTLALF [CLCN6]
2. ELLTDKSCQSFISWTGDGWEFKLS [ETS1]
3. VYTETVHVTVENVQELLPAACLLQ [KLHL12]
4. QVAPLTHVFQRQKSELSDGIAILV [TRIM55]
5. RGLGLGGRRLKSPQAPDPEEEENR [FANCE]

RESULT:
1. 2.45
2. 2.24
3. 2.12
4. 2.26
5. 5.11
